# credit: ChEMBL document CHEMBL1201862

- System: M14
- procedure.summary: NCI tumour cell line growth inhibition, 48 h
Activity calls are given as the source filed them. Cut-off read from the data, not from the text of the source: active = GI50 up to about 1.1 µM and inactive = higher.
endpoint.name: GI50

{"molecule": "CC1(C)O[C@@H](CP(c2ccc3ccccc3c2)c2ccc3ccccc3c2)[C@H](CP(c2ccc3ccccc3c2)c2ccc3ccccc3c2)O1", "endpoint.name": "GI50", "result": "> 100 µM (inactive)"}
{"molecule": "CCOC(=O)C1(C)CCCc2sc(N)c(C#N)c21 (centres undefined)", "endpoint.name": "GI50", "result": "> 100 µM (inactive)"}
{"molecule": "CSc1nc2c(=O)n(-c3ccccc3)c(=S)n(-c3ccccc3)c2s1", "endpoint.name": "GI50", "result": "70 µM (inactive)"}
{"molecule": "CC(=O)Oc1cc2c(cc1OC(C)=O)[C@H]1CC[C@]3(C)[C@@H](OC(C)=O)CC[C@H]3[C@@H]1CC2", "endpoint.name": "GI50", "result": "6 µM (inactive)"}

* * *

Entries with reported GI50 on HCT-15

{"compound": "CSC1=N/C(=C\\c2ccco2)C(=O)N1CN1CCOCC1", "GI50": "33.7 µM"}
{"compound": "COc1cc(OC)cc(-c2nc(O)c3ccccc3n2)c1", "GI50": "> 100 µM"}
{"compound": "CN(C)c1ccc(-c2[nH]c(=O)c3ccccc3[n+]2C)cc1", "GI50": "> 100 µM"}
{"compound": "CC1(c2cccc(C(F)(F)F)c2)CC(c2cccc(C(F)(F)F)c2)=C(C#N)C(=C(C#N)C#N)N1 (stereo unspecified)", "GI50": "16.4 µM"}
{"compound": "N#CC1C(=O)SC2c3ccccc3C(=O)c3ccccc3C12 (stereo unspecified)", "GI50": "> 10 µM"}
{"compound": "Cc1ccccc1C(=O)C1CCCCC1O (stereo unspecified)", "GI50": "> 100 µM"}

* * *

- System: U-251
- procedure.summary: NCI tumour cell line growth inhibition, 48 h
Active and inactive are the calls of the source. No stated cut-off is given here; in the data, active = GI50 up to about 1.1 µM and inactive = higher.

{"compound": "CC(=O)NNc1nc(C)c(C(/C=C/c2ccc(Cl)cc2)=N\\N=C(N)N)s1", "GI50": "> 100 µM (inactive)"}
{"compound": "COC(=O)c1cccn1C(=O)n1cccc1", "GI50": "> 100 µM (inactive)"}
{"compound": "O=C1CSc2cc([N+](=O)[O-])ccc2N1", "GI50": "> 100 µM (inactive)"}
{"compound": "CC1=CC(=O)[C@@H](O)[C@]2(C)[C@H]3[C@@]4(O)OC[C@@]35[C@@H](C[C@@H]12)OC(=O)C(OC(=O)CC1=CCCC1)[C@H]5[C@@H](C)[C@H]4O (stereo partly drawn)", "GI50": "0.0158 µM (active)"}
{"compound": "CCCCCn1cnc2c1S(=O)(=O)N(C)C(NC(=O)c1ccccc1)=N2", "GI50": "> 100 µM (inactive)"}
{"compound": "COc1cc([C@@H]2c3cc4c(cc3[C@@H](NC(=O)c3cccc([N+](=O)[O-])c3)C3COC(=O)[C@@H]32)OCO4)cc(OC)c1O (stereo partly drawn)", "GI50": "0.166 µM (active)"}
{"compound": "CC(=O)/C(=C/NC(=S)c1cccnc1)C(=O)Nc1ccccc1C", "GI50": "71.9 µM (inactive)"}
{"compound": "CCNC(=O)Nc1cccc(C)n1", "GI50": "> 100 µM (inactive)"}
{"compound": "O=C(O)c1cc(CC2Cc3cc4c(cc3C2=O)CCC4)cc2c1CCC2 (stereo not drawn)", "GI50": "82.2 µM (inactive)"}
{"compound": "CNC1C(=O)C(C)C(O)(C(CC(C)C(O)/C=C/C=C/CNC(=O)C(C)(C)C(O)\\C(C)=C/C=C\\C=C\\Cc2cnc(C)o2)OC)C12C(=O)OC2C.CNC1C(=O)C(C)C(O)(C(CC(C)C(O)/C=C/C=C/CNC(=O)C(C)(C)C(O)\\C(C)=C/C=C\\C=C\\Cc2cnc(C)o2)OC)C12C(=O)OC2COC (stereo not drawn)", "GI50": "1.15 µM (inactive)"}
{"compound": "CN(C)CCNc1ccc2ncnc3c2c1C(=O)c1ccccc1-3", "GI50": "0.49 µM (active)"}
{"compound": "COc1ccc(CNc2nc(NCc3ccc(OC)c(OC)c3)nc(NC3CCCCC3)n2)cc1", "GI50": "3.44 µM (inactive)"}
{"compound": "O=CN1CCN(C(=O)c2ccco2)C1=S", "GI50": "13.9 µM (inactive)"}
{"compound": "COC(=O)C1CCC2(C)[C@H](CCC3O[C@]32C)[C@@]1(C)CC(=O)c1ccoc1 (stereo partly drawn)", "GI50": "36.6 µM (inactive)"}
{"compound": "CC([C@H]1CCC2C3CCC4CC5(CC[C@]4(C)C3CC[C@@]21C)c1ccccc1C(=O)N5C)N(C)C (stereo partly drawn)", "GI50": "40.4 µM (inactive)"}
{"compound": "C=C1CCC(CC[C@@H]2CC[C@]3(OC2)O[C@@]2(O)CC[C@]3(C)OC2(C)C)C(C)(C)[C@H]1C/C=C1/C(=O)OC[C@@H]1O (stereo partly drawn)", "GI50": "2 µM (inactive)"}
{"compound": "ON[C@@H]1C=C[C@H](n2cnc3c(NC4CC4)ncnc32)C1", "GI50": "> 100 µM (inactive)"}
{"compound": "CCCCCCCCCCCCCCCCOP(=O)(O)OCC(N)C(=O)O (stereo not drawn)", "GI50": "12.9 µM (inactive)"}
{"compound": "CC(C)C(=O)/C=C/S/C=C/C(=O)C(C)C", "GI50": "18.6 µM (inactive)"}
{"compound": "C=C1C(=O)C23CC1C[C@H](OC(C)=O)C2C1(C)C(OC(C)=O)C[C@H](O)C(C)(C)[C@H]1C(O)[C@@H]3OC(C)=O (stereo partly drawn)", "GI50": "15.3 µM (inactive)"}
{"compound": "COc1ccc(N2N=NN(C(C)C)/C2=C(/Cl)c2nnnn2-c2ccc(OC)cc2)cc1", "GI50": "17.5 µM (inactive)"}
{"compound": "COc1ccccc1/C(=N\\OCCC(=O)O)c1cccs1", "GI50": "> 100 µM (inactive)"}
{"compound": "CCN(CC)C(=O)C1=C(C)NC(C)=C(C(=O)N(CC)CC)C1", "GI50": "> 100 µM (inactive)"}
{"compound": "CN1CCCC2[C@@H]3CCC4=C(O)C(=O)CC[C@]4(C)C3CC[C@@]21C (stereo partly drawn)", "GI50": "> 100 µM (inactive)"}
{"compound": "CC(C)(CO)NC1=C(Cl)C(=O)c2c(O)ccc(O)c2C1=O", "GI50": "1.73 µM (inactive)"}
{"compound": "CN(C)c1ccc(-c2[nH]c(=O)c3ccccc3[n+]2C)cc1", "GI50": "> 100 µM (inactive)"}
{"compound": "Cc1ccc2c(=O)[nH]sc2c1", "GI50": "14.8 µM (inactive)"}
{"compound": "COc1cc(OC)cc(-c2nc(O)c3ccccc3n2)c1", "GI50": "39.3 µM (inactive)"}
{"compound": "Nc1c(S(=O)(=O)c2ccccc2)c2nc3ccccc3nc2n2c1nc1ccccc12", "GI50": "24.7 µM (inactive)"}
{"compound": "O=C(O)CCCSc1nc2ccccc2s1", "GI50": "> 100 µM (inactive)"}
{"compound": "CN(C)C(=S)OC(Cn1cncn1)c1ccc(Cl)cc1Cl (stereo not drawn)", "GI50": "> 100 µM (inactive)"}
{"compound": "O=c1[nH]cnc2sc(=S)c3c(c12)CCC3", "GI50": "> 100 µM (inactive)"}
{"compound": "CCN(CC)CCOC(c1cc(OC)ccc1OC)c1ccc2n1-c1ccccc1OC2 (stereo not drawn)", "GI50": "14.9 µM (inactive)"}
{"compound": "Cc1ccc(/C=C/C(=O)Oc2ccc(/C=C3\\CCC/C(=C\\c4ccc(OC(=O)/C=C/c5ccc(C)cc5)cc4)C3=O)cc2)cc1", "GI50": "34 µM (inactive)"}
{"compound": "CC(=O)c1cccc2c1CC1(C2)Cc2ccc3c(c2C1=O)CCC3 (stereo not drawn)", "GI50": "47.1 µM (inactive)"}
{"compound": "O=CC(O)C(O)C(O)COc1cc(CO)cc2c1C(=O)c1ccccc1C2=O (stereo not drawn)", "GI50": "> 100 µM (inactive)"}
{"compound": "CC(C)[C@@H]1NC(=O)[C@H]2N=C(O[C@@H]2C)[C@@H]2CCCN2C(=O)[C@H](Cc2ccccc2)NC(=O)[C@@H]2CSC(=N2)[C@@H](Cc2ccccc2)NC(=O)[C@@H]2CSC1=N2", "GI50": "> 50 µM (inactive)"}
{"compound": "NC(=O)N/N=C1/c2ccccc2-n2nccc21", "GI50": "> 100 µM (inactive)"}
